All figures here come from patent US10695322B2.

- TARGET OF ASSAY: LdtMab1, wild-type (MAB_3165c, orthologue of LdtMt1) (Mycobacteroides abscessus)
- Sequence (B1MDC1 21-248): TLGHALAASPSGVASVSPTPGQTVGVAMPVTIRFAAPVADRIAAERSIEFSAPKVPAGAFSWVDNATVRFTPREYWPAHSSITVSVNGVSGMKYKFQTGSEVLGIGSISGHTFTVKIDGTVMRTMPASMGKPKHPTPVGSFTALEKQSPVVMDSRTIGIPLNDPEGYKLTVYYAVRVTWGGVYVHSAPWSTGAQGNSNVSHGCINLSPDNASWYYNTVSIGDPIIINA
- EXPERIMENT NOTES: biochemical
- STATED CONDITIONS: Figure 6; ITC, wt, protein 150 μM, ligand 2 mM, pH 8.0, 24° C.
Please respond with reported Kd for every item in the list.
Entry rule: numbers only, all in µM.

stdin: Kd for `CC(=O)OCC1=C(C(=O)O)N2C(=O)[C@@H](NC(=O)Cc3cccs3)[C@H]2SC1` ?
stdout: 30.3

stdin: And what about the molecule `CC1(C)S[C@@H]2[C@H](NC(=O)[C@H](N)c3ccc(O)cc3)C(=O)N2[C@H]1C(=O)O` ?
stdout: 1290

stdin: And what about the molecule `C[C@@H](O)[C@H]1C(=O)N2C(C(=O)O)=C(SC3CN(C4=NCCS4)C3)[C@H](C)[C@H]12` ?
stdout: 0.82
